measurement.description: Half life in human microsomes
Assay type: ADME, Microsome
Entries and their half-life values follow.

{"smiles.notation": "O=C(Nc1ccc(Cl)cc1Cl)c1cn[nH]n1", "half-life": "> 1.67 h"}
{"smiles.notation": "O=C(Nc1ccc(F)cn1)c1cc[nH]n1", "half-life": "0.6 h"}
{"smiles.notation": "O=C(Nc1ccc2ccccc2n1)c1cc[nH]n1", "half-life": "> 1.67 h"}

----------
// values below are IC50; system is Polyunsaturated fatty acid lipoxygenase ALOX15 (Homo sapiens)
Sequence (P16050 whole entry): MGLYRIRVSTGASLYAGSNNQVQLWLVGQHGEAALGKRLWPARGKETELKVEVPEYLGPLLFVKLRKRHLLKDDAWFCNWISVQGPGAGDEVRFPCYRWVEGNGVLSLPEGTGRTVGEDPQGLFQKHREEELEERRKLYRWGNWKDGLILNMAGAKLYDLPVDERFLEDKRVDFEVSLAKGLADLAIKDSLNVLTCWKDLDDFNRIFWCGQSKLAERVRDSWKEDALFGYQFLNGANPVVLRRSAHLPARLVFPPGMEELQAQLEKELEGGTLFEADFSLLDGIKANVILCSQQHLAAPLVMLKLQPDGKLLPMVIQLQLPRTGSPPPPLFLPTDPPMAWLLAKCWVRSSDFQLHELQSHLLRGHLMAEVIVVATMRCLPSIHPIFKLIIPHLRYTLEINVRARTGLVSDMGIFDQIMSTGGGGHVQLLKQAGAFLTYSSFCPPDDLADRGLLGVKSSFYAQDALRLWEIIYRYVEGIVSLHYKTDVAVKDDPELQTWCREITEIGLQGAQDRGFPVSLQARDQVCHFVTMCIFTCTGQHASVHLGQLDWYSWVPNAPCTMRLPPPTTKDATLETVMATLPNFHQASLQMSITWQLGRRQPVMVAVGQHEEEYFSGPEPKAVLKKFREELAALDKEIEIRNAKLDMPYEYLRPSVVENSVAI

{"smiles.notation": "O=C(Nc1ccc(F)cc1)c1cn[nH]n1", "target": "Polyunsaturated fatty acid lipoxygenase ALOX15 (Homo sapiens)", "IC50 (µM)": 2.43}
{"smiles.notation": "O=C(Nc1ccccn1)c1cc[nH]n1", "target": "Polyunsaturated fatty acid lipoxygenase ALOX15 (Homo sapiens)", "IC50 (µM)": 3.41}
{"smiles.notation": "Nc1cc(C(=O)Nc2ccc(F)cc2Cl)n[nH]1", "target": "Polyunsaturated fatty acid lipoxygenase ALOX15 (Homo sapiens)", "IC50 (µM)": 0.334}
{"smiles.notation": "O=C(Nc1ccc(F)cc1)c1cc[nH]n1", "target": "Polyunsaturated fatty acid lipoxygenase ALOX15 (Homo sapiens)", "IC50 (µM)": 0.27}
{"smiles.notation": "Cc1c(C(=O)Nc2ccc(F)cc2Cl)n[nH]c1[Si](C)(C)C", "target": "Polyunsaturated fatty acid lipoxygenase ALOX15 (Homo sapiens)", "IC50 (µM)": 1.33}
{"smiles.notation": "O=C(Nc1ccc2ccccc2n1)c1cc[nH]n1", "target": "Polyunsaturated fatty acid lipoxygenase ALOX15 (Homo sapiens)", "IC50 (µM)": 0.092}
{"smiles.notation": "Clc1ccc2nc(-c3n[nH]c(Cl)c3Cl)oc2c1", "target": "Polyunsaturated fatty acid lipoxygenase ALOX15 (Homo sapiens)", "IC50 (µM)": 0.034}
{"smiles.notation": "O=C(Nc1cnc2ccccc2c1)c1cn[nH]n1", "target": "Polyunsaturated fatty acid lipoxygenase ALOX15 (Homo sapiens)", "IC50 (µM)": 1.02}
